Listing of entries alongside the reported abundance fitness.
B1: Far upstream element-binding protein 3, residues 75 to 150; numbered along this chain, Q96I24 (parent)
chain: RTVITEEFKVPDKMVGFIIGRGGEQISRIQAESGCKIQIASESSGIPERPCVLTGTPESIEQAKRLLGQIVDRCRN

Variants of: B1
assay.protocol: abundance fitness (aPCA) (normalised: wild type 0, dead -1); higher = more abundant; growth selection in yeast, the domain comes from the species named
conditions.used: Homo sapiens
parameter: abundance fitness

# biopolymer.sequence, experimental.value
rows = [
    ("RTVITEEFKVPDKMVGFIIGRGGEQISRIQAESGHKIQIASESSGIPERPCVLTGTPESIEQAKRLLGQIVDRCRN [C35H]", -0.585),
    ("RTVITEEFKVPDKMVGFIIGRQGEQISRIQAESGCKIQIASESSGIPERPCVLTGTPESIEQAKRLLGQIVDRCRN [G22Q]", -0.085),
    ("RTVITEEFKVPDKMVGFIIGRGGEQISRIQAESGCKIQIASESSGIPERPCVLTGTPESIEQAKRMLGQIVDRCRN [L66M]", -0.038),
    ("RTVITEEFKVLDKMVGFIIGRGGEQISRIQAESGCKIQIASESSGIPERPCVLTGTPESIEQAKRLLGQIVDRCRN [P11L]", -0.236),
    ("RTVITEEFHVPDKMVGFIIGRGGEQISRIQAESGCKIQIASESSGIPERPCVLTGTPESIEQAKRLLGQIVDRCRN [K9H]", 0.012),
    ("RTVITEEFKVPDKMVGFIIGRGGEQISRIQAESGCKIQIASESSGIPERPCVLTGTPESIEQMKRLLGQIVDRCRN [A63M]", -0.292),
    ("RTVITEEFKVPDKMVGFIIGRGGEQISRIQAESGCKIQIASESSGIPERPCVLTGTPESIEQAKRLLGQIVDRCRA [N76A]", 0.036),
    ("RTVITEEFWVPDKMVGFIIGRGGEQISRIQAESGCKIQIASESSGIPERPCVLTGTPESIEQAKRLLGQIVDRCRN [K9W]", -0.053),
    ("RTVITEEFKVPDKMVGFIIGRGGYQISRIQAESGCKIQIASESSGIPERPCVLTGTPESIEQAKRLLGQIVDRCRN [E24Y]", 0.062),
    ("RTVIWEEFKVPDKMVGFIIGRGGEQISRIQAESGCKIQIASESSGIPERPCVLTGTPESIEQAKRLLGQIVDRCRN [T5W]", -0.192),
    ("RTVITEEFKVPDKMVGFIIGRGGEQISRIQAESGCKIQIASESSGIPERPCVLTGTPEFIEQAKRLLGQIVDRCRN [S59F]", -1.1),
    ("RTVITEEFKVPDKMVGFIIGRGGEQISRIQAESGCKIQIASESSGIPERPCVLTGTPESIEQAKRLLGQIVDRCTN [R75T]", 0.052),
    ("RTVITEEFKVPDKMVGFIIGRGGEQISRIQAESGCKIQSASESSGIPERPCVLTGTPESIEQAKRLLGQIVDRCRN [I39S]", -0.485),
    ("RTVITEEFKVPDKMVGFIIGRGGEQISRIQAESGCKIQIASRSSGIPERPCVLTGTPESIEQAKRLLGQIVDRCRN [E42R]", 0.005),
    ("ATVITEEFKVPDKMVGFIIGRGGEQISRIQAESGCKIQIASESSGIPERPCVLTGTPESIEQAKRLLGQIVDRCRN [R1A]", -0.077),
    ("RTVITEEFKVPDKMVGFIIGRGGEQISRIQAESGCKIQIASESSGIPERPCVLTGTPESIEQAKRLLGWIVDRCRN [Q69W]", -0.283),
    ("RTVITEEFKVPDKMVGFIIGRGGEQISRIQAESGCKIQIASESSGIPERPCVLTGTPESIEQAKRLLGQIPDRCRN [V71P]", -0.198),
    ("RTVITEEFKVPDKMVGFIIGRGGEQISRFQAESGCKIQIASESSGIPERPCVLTGTPESIEQAKRLLGQIVDRCRN [I29F]", -0.278),
    ("RTVITEEFKVPDKMVGFIIGRGGEQISRIQAESGCKIQIASEDSGIPERPCVLTGTPESIEQAKRLLGQIVDRCRN [S43D]", -0.036),
    ("RTVITEEFKVPDKMVGFIIGRGGEQISPIQAESGCKIQIASESSGIPERPCVLTGTPESIEQAKRLLGQIVDRCRN [R28P]", -0.617),
    ("RMVITEEFKVPDKMVGFIIGRGGEQISRIQAESGCKIQIASESSGIPERPCVLTGTPESIEQAKRLLGQIVDRCRN [T2M]", -0.033),
    ("RTVITEEFKVPDKMVGFIIGRGGEQISRIQADSGCKIQIASESSGIPERPCVLTGTPESIEQAKRLLGQIVDRCRN [E32D]", -0.005),
]
